method.description: chemical genetic growth profiling, strain panel (AID 1159580);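 further: tested at 20 µM; growth read once vehicle control cultures reached saturation at 30 °C; 1 = growth at the plate median or of vehicle wells; lower values mean less growth of the strain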
test.settings: S. cerevisiae deletion strains, growth OD, locus YJL157C, strain FAR1, stronger effect = lower value
The whole screen tested about 5,500 compounds, of which about 2,000 (36%) were called active. Roughly 18% stayed inconclusive and do not appear here. The list shows a part of the results.
observable: normalized growth
Respond using a number only.

O=S(=O)(NCc1ccc(C(F)(F)F)cc1)c1cccc(C(F)(F)F)c1: 0.954
Clc1ccccc1-c1csc(-c2ccncc2)n1: 0.93

Now let's try a different one.
Reported normalized growth for O=C(Nc1cc(C(F)(F)F)cc(C(F)(F)F)c1)C(Cl)(Cl)Cl : what is it?
0.932
